Source of measurements: the supplement of paper PMC11061612

Would you kindly list combination Emax for each of these molecules?
Tested on: LoVo (Colorectal Carcinoma)
Experiment: combination Emax (second highest fraction inhibited in the dose matrix, 72 h); higher = more inhibition; extreme values may be limits of the assay

Observe how each entry below is paired with its result.
molecule	measured.on	combination Emax
COc1nnc2ccc(N3CCC(c4ccc(OCCN5CCN(C)C(=O)[C@H]5C)cc4)CC3)nn12 [AZD5153] + Cn1cnc2c(F)c(Nc3ccc(Br)cc3Cl)c(C(=O)NOCCO)cc21 [Selumetinib] (first compound max 1 µM, 7x7, partner max 10 µM)	LoVo (Colorectal Carcinoma)	0.862
CN(CCO)CC[C@H](CSc1ccccc1)Nc1ccc(S(=O)(=O)NC(=O)c2ccc(N3CCC([C@@H](O)c4ccccc4-c4ccc(Cl)cc4)CC3)cc2)cc1S(=O)(=O)C(F)(F)F [AZD4320] + CC(=O)O[C@H]1C(=O)[C@@]2(C)[C@H]([C@H](OC(=O)c3ccccc3)[C@]3(O)C[C@H](OC(=O)[C@H](O)[C@@H](NC(=O)c4ccccc4)c4ccccc4)C(C)=C1C3(C)C)[C@]1(OC(C)=O)CO[C@@H]1C[C@@H]2O [Paclitaxel] (first compound max 1 µM, 7x7, partner max 3 µM)	LoVo (Colorectal Carcinoma)	0.746

Okay, next one:
Ask: Entry under review: CCc1c2c(nc3ccc(O)cc13)-c1cc3c(c(=O)n1C2)COC(=O)[C@]3(O)CC [SN-38] + CN(C)CCCOc1ccc(-c2ccc3ncc4c(c3c2)n(C2CCOCC2)c(=O)n4C)cn1 [AZD0156] (first compound max 0.3 µM, 7x7, partner max 1 µM) . Reported combination Emax?
Result: 0.727
